target: Dopamine receptors; D2 & D3 (Homo sapiens) (UniProt P14416+P35462); assay: Selectivity at D3 compared to D2 receptors.; assay type: protein assay

compound | Selectivity
CCS(=O)(=O)c1ccc(OC)c(-c2ccc(CN3CCCC3c3ccccc3)[nH]2)c1 (stereo unspecified) | 15
CCS(=O)(=O)c1ccc(OC)c(-c2ccc(CN3CCCC3)[nH]2)c1 | 4
CCS(=O)(=O)c1ccc(OC)c(-c2ccc(C(C)N3CCCCCC3)[nH]2)c1 (stereo unspecified) | 4
CCN(Cc1ccccc1)Cc1ccc(-c2cc(S(=O)(=O)CC)ccc2OC)[nH]1 | 3
CCN1CCCC1c1ccc(-c2cc(S(=O)(=O)CC)ccc2OC)[nH]1 (stereo unspecified) | 5
CCS(=O)(=O)c1ccc(OC)c(-c2ccc(CN3CCCCCC3c3ccccc3)[nH]2)c1 (stereo unspecified) | 30
CCS(=O)(=O)c1ccc(OC)c(-c2ccc(CN3CCCCC3c3ccccc3)[nH]2)c1 (stereo unspecified) | 10
CCS(=O)(=O)c1ccc(OC)c(-c2ccc(C(C)N3CCCC3)[nH]2)c1 (stereo unspecified) | 20
CCN1CCCCCC1c1ccc(-c2cc(S(=O)(=O)CC)ccc2OC)[nH]1 (stereo unspecified) | 4
CCS(=O)(=O)c1ccc(OC)c(-c2ccc(CN3CCCCCCC3c3ccccc3)[nH]2)c1 (stereo unspecified) | 15
CCS(=O)(=O)c1ccc(OC)c(-c2ccc(CN3CCOCC3)[nH]2)c1 | 4

====

target: Dopamine receptors; D2 & D3 (Homo sapiens) (UniProt P14416+P35462); assay: Selectivity at D3 compared to D2 receptors.; format: protein assay
Param threshold (8) applies to Selectivity; output Yes when value >= threshold, No when value < threshold.

compound | targetEntity | categoryLabel
CCS(=O)(=O)c1ccc(OC)c(-c2ccc(CN3CCCCCC3)[nH]2)c1 | Dopamine receptors; D2 & D3 (Homo sapiens) (UniProt P14416+P35462) | Yes
CCN1CCCCC1c1ccc(-c2cc(S(=O)(=O)CC)ccc2OC)[nH]1 (stereo not given) | Dopamine receptors; D2 & D3 (Homo sapiens) (UniProt P14416+P35462) | No
CCS(=O)(=O)c1ccc(OC)c(-c2ccc(CN3CCCCC3)[nH]2)c1 | Dopamine receptors; D2 & D3 (Homo sapiens) (UniProt P14416+P35462) | No
CCS(=O)(=O)c1ccc(OC)c(-c2ccc(C(C)N3CCCCC3)[nH]2)c1 (stereo not given) | Dopamine receptors; D2 & D3 (Homo sapiens) (UniProt P14416+P35462) | Yes

====

target: D(3) dopamine receptor (Homo sapiens)
Sequence (P35462 whole entry): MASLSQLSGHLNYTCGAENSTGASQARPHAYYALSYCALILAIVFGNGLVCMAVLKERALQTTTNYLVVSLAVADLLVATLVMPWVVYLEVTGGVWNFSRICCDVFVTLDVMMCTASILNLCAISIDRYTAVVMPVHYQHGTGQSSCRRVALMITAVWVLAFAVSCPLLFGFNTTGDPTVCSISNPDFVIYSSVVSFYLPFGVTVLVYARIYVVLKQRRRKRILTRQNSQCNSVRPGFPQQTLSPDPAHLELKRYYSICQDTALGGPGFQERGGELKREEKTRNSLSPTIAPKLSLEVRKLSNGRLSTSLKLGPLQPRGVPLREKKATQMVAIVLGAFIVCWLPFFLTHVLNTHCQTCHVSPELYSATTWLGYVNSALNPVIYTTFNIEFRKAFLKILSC
# reported Ki; entries follow
measuredProperty: Ki

compound | targetEntity | result
CCN(CC)Cc1ccc(-c2cc(S(=O)(=O)CC)ccc2OC)[nH]1 | D(3) dopamine receptor (Homo sapiens) | 39.8 nM
CCS(=O)(=O)c1ccc(OC)c(-c2ccc(CN3CCCCCCC3c3ccccc3)[nH]2)c1 (stereo not given) | D(3) dopamine receptor (Homo sapiens) | 20 nM
CCN1CCCCC1c1ccc(-c2cc(S(=O)(=O)CC)ccc2OC)[nH]1 (stereo not given) | D(3) dopamine receptor (Homo sapiens) | 2 nM
CCS(=O)(=O)c1ccc(OC)c(-c2ccc(CN3CCCCC3c3ccccc3)[nH]2)c1 (stereo not given) | D(3) dopamine receptor (Homo sapiens) | 1.26 nM
CCS(=O)(=O)c1ccc(OC)c(-c2ccc(CN3CCCCCC3)[nH]2)c1 | D(3) dopamine receptor (Homo sapiens) | 15.8 nM
CCS(=O)(=O)c1ccc(OC)c(-c2ccc(C(C)N3CCCC3)[nH]2)c1 (stereo not given) | D(3) dopamine receptor (Homo sapiens) | 20 nM
CCN1CCCC1CNC(=O)c1cc(S(=O)(=O)CC)ccc1OC (stereo not given) [SULTOPRIDE] | D(3) dopamine receptor (Homo sapiens) | 6.31 nM
CCN(Cc1ccccc1)Cc1ccc(-c2cc(S(=O)(=O)CC)ccc2OC)[nH]1 | D(3) dopamine receptor (Homo sapiens) | 0.316 nM
CCS(=O)(=O)c1ccc(OC)c(-c2ccc(C(C)N3CCCCCC3)[nH]2)c1 (stereo not given) | D(3) dopamine receptor (Homo sapiens) | 20 nM
CCS(=O)(=O)c1ccc(OC)c(-c2ccc(CN3CCCC3)[nH]2)c1 | D(3) dopamine receptor (Homo sapiens) | 63.1 nM

Reference for the values: ChEMBL document CHEMBL1152020
